Ref: paper PMC7866225

- procedure summary: In vitro cytotoxicity, MTT assay
- Format: cell-based
- condition: human, HepG2 cells; HepG2, 50 μg/mL, 24 h, control = 100; read-out: Cell Viability
metric name: viability at 24 h, 50 μg/mL (%)
Reply with just the number (in %).

Observe how each entry below is paired with its result.
{"columns": ["mol smiles", "recorded result"],
 "data": [
  ["Cc1cccc(C)c1NC(=S)NN=Cc1cc2cccc(C)c2nc1N1CCCCC1", 75],
  ["Cc1ccc(NC(=S)NN=Cc2cc3cccc(C)c3nc2N2CCCCC2)c(C)c1", 87.5],
  ["Cc1cccc2cc(C=NNC(=S)Nc3ccccc3Cl)c(N3CCCCC3)nc12", 102],
  ["Cc1cccc2cc(C=NNC(=S)Nc3cccc(F)c3)c(N3CCCCC3)nc12", 95.5],
  ["Cc1ccc2nc(N3CCCCC3)c(C=NNC(=S)Nc3ccc(Cl)cc3)cc2c1", 84.3]
]}

Ask | Note down viability at 24 h, 50 μg/mL recorded for Cc1cccc2cc(C=NNC(=S)Nc3ccc(F)cc3)c(N3CCCCC3)nc12
Reply | 103

Ask | Note down viability at 24 h, 50 μg/mL recorded for Cc1cccc2cc(C=NNC(=S)NCc3ccccc3)c(N3CCCCC3)nc12
Reply | 103

Ask | Note down viability at 24 h, 50 μg/mL recorded for Cc1ccc2nc(N3CCCCC3)c(C=NNC(=S)Nc3ccc(F)cc3)cc2c1
Reply | 93.4

Ask | Note down viability at 24 h, 50 μg/mL recorded for Cc1ccc2nc(N3CCCCC3)c(C=NNC(=S)Nc3ccccc3Cl)cc2c1
Reply | 94.2

Ask | Note down viability at 24 h, 50 μg/mL recorded for Cc1ccc(NC(=S)NN=Cc2cc3cc(C)ccc3nc2N2CCCCC2)c(C)c1
Reply | 105
